Every entry's value here was drawn from patent US8193191B2.

- SYSTEM_UNDER_TEST: Human UII receptor, 6D9 human rhabdomyosarcoma cells (Homo sapiens)
- Construct: 6D9: isolated by dilution subcloning of RMS13 cells, ATCC® Number: CRL-2061
- Sequence (Q9UKP6 whole entry): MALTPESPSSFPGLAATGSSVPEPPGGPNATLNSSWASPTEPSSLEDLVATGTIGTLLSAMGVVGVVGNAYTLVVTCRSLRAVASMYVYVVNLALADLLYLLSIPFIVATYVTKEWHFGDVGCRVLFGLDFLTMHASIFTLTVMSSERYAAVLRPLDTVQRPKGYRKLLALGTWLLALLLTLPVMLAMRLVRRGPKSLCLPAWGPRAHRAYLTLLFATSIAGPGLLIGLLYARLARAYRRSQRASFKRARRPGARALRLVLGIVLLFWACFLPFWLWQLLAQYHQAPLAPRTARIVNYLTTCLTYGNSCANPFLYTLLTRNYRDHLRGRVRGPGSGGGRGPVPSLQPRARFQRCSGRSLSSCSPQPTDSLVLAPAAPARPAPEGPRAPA
- METHOD_DESCRIPTION: Human UII Calcium Mobilization Assay
- CONDITION_LABEL: average value, FLIPR TETRA, read-out: Human UII Ca^+ Mobilization Average IC50
PROPERTY_MEASURED: IC50 (nM)

1. COc1ccc([C@@H](CCCNC(=O)c2cccnc2)N2C(=O)c3cccc(N4CCN([C@H](C)c5ccccc5)CC4)c3C2=O)cc1OC
1000
2. CCN1CCN(c2cccc3c2C(=O)N([C@H](CCCNC(=O)C2CCC2)c2ccc(OC)c(OC)c2)C3=O)CC1
960

[P] COc1ccc([C@@H](CCCNC(=O)C(F)(F)F)N2C(=O)c3cccc(N4CCN([C@H](C)c5ccccc5)CC4)c3C2=O)cc1OC
[Q] COc1ccc([C@@H](CCCNC(=O)c2ccncc2)N2C(=O)c3cccc(N4CCN([C@H](C)c5ccccc5)CC4)c3C2=O)cc1OC
Lookup: Task for the reader: decide whether P or Q has the larger IC50. Field: selected label. Fill in the label of the entry you choose.
Found: Q
